Attribute: pKd
# TESTED_ON: 14-3-3η (Homo sapiens, UniProt Q04917)
# Construct: cDNAs encoding other full-length 14-3-3 isoforms β, τ, η, and σ were obtained as codon-optimized
# Sequence (Q04917 whole entry, canonical isoform): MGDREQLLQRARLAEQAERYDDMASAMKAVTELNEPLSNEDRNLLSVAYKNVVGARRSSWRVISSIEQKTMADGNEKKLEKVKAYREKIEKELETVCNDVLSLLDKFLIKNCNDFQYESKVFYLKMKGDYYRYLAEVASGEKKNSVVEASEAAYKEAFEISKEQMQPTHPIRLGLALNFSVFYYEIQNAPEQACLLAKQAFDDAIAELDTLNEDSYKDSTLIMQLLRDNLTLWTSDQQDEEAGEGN
# TEST: biochemical
pKd: −log10 of the molar value. Starred links: 1 amine or outer side, 2 acyl side, 3 side chain; linkers in the order of their positions; H or OH if unused. Non-standard residues stand in square brackets, D forms with d. Residues, ends and D or L forms follow the SMILES beside them. *: point of attachment. X1 = O=C(CCCC[C@@H]1SC[C@@H]2NC(=O)N[C@@H]21)NCCCOCCOCCOCCCN*; pT = C[C@@H](OP(=O)(O)O)[C@H](N)C(=O)O; Suc = O=C(CCC(=O)[*:2])[*:1]
RECORDED_METRIC: pKd

COMPOUND	TESTED_ON	REPORTED_VALUE
CC(C)[C@H](NC(=O)[C@H](CCC(=O)O)NC(=O)[C@@H](NC(=O)[C@H](CCC(=O)O)NC(=O)[C@H](CCCNC(=N)N)NC(=O)[C@H](CCCNC(=N)N)NC(=O)[C@@H](NC(=O)[C@@H]1CCCN1C(=O)[C@H](CCCCN)NC(=O)[C@H](CO)NC(=O)CCC(=O)NCCCOCCOCCOCCCNC(=O)CCCC[C@@H]1SC[C@@H]2NC(=O)N[C@@H]21)[C@@H](C)O)[C@@H](C)OP(=O)(O)O)C(=O)O [pHPV35E6] ({X1-Suc}-SKPTRRE[pT]EV-OH)	14-3-3η (Homo sapiens, UniProt Q04917)	3.79
CC(C)[C@H](NC(=O)[C@H](CCC(=O)O)NC(=O)[C@@H](NC(=O)[C@H](CCC(=O)O)NC(=O)[C@H](CCCNC(=N)N)NC(=O)[C@H](CCCNC(=N)N)NC(=O)[C@H](CCCNC(=N)N)NC(=O)[C@@H]1CCCN1C(=O)[C@H](CCCCN)NC(=O)[C@H](CO)NC(=O)CCC(=O)NCCCOCCOCCOCCCNC(=O)CCCC[C@@H]1SC[C@@H]2NC(=O)N[C@@H]21)[C@@H](C)OP(=O)(O)O)C(=O)O [pHPV35E6T-6R] ({X1-Suc}-SKPRRRE[pT]EV-OH)	14-3-3η (Homo sapiens, UniProt Q04917)	4.07
CC(C)C[C@H](NC(=O)[C@H](C)NC(=O)[C@@H](NC(=O)[C@H](CCC(=O)O)NC(=O)[C@H](CCCNC(=N)N)NC(=O)[C@H](CCCNC(=N)N)NC(=O)[C@H](CCCNC(=N)N)NC(=O)[C@H](CO)NC(=O)[C@H](CCCNC(=N)N)NC(=O)[C@H](CO)NC(=O)CCC(=O)NCCCOCCOCCOCCCNC(=O)CCCC[C@@H]1SC[C@@H]2NC(=O)N[C@@H]21)[C@@H](C)OP(=O)(O)O)C(=O)O [pHPV33E6] ({X1-Suc}-SRSRRRE[pT]AL-OH)	14-3-3η (Homo sapiens, UniProt Q04917)	5.70
CC(C)[C@H](NC(=O)[C@H](C)NC(=O)[C@@H](NC(=O)[C@H](CCC(=O)O)NC(=O)[C@H](CCCNC(=N)N)NC(=O)[C@H](CCCNC(=N)N)NC(=O)[C@@H](NC(=O)[C@@H]1CCCN1C(=O)[C@H](CCCCN)NC(=O)[C@H](CO)NC(=O)CCC(=O)NCCCOCCOCCOCCCNC(=O)CCCC[C@@H]1SC[C@@H]2NC(=O)N[C@@H]21)[C@@H](C)O)[C@@H](C)OP(=O)(O)O)C(=O)O [pHPV35E6E-1A] ({X1-Suc}-SKPTRRE[pT]AV-OH)	14-3-3η (Homo sapiens, UniProt Q04917)	4.91
